Hello, the source for this data is paper PMC9838217, in case you need it.

Biological target: SALL4 ZFC4 R900W (HT-SELEX) (Mus musculus, UniProt Q8BX22 870-940, R900W)
Sequence: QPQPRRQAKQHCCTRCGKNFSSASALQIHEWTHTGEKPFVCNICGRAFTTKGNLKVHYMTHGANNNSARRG
Assay: HT-SELEX; high values mean tight binding
Settings: protein: recombinant; vector His6-GST; dsDNA, one strand shown
Response field label: string, one of TRUE (binding signal strictly below 0.9 fold-change vs cycle 0) or FALSE.

Determine if AAATAA shows binding signal strictly lower than 0.9 fold-change vs cycle 0.
FALSE

Try this sequence next: GTTCGA
TRUE

Try this sequence next: TAGTGA
FALSE

Try this sequence next: AATGGT
FALSE

Try this sequence next: ATGTAC
FALSE

Try this sequence next: ATCAGC
TRUE

Try this sequence next: CACATC
TRUE

Try this sequence next: AGCCGA
TRUE

Try this sequence next: CTCGGA
TRUE

Try this sequence next: CCGTCC
TRUE

Try this sequence next: ACCTTG
FALSE

Try this sequence next: ACGGCT
TRUE

Try this sequence next: TAGCCA
TRUE

Try this sequence next: AAACGC
TRUE

Try this sequence next: CCCAAG
TRUE

Try this sequence next: GCTTAC
TRUE

Try this sequence next: TCGCAA
TRUE

Try this sequence next: TGACCA
TRUE

Try this sequence next: GAATTC
FALSE

Try this sequence next: ATTTAA
FALSE

Try this sequence next: AATAGG
FALSE

Try this sequence next: GACTAA
FALSE

Try this sequence next: AGTCTC
FALSE
